Source listed as patent US20220227789A1.

# ASSAY_SYSTEM: HBV core protein (C-terminal truncated, 149 aa assembly domain) (Hepatitis B virus genotype D subtype adw, UniProt P03147, C107A/C48A/C61A)
# Construct: The C-terminal truncated core protein containing 149 amino acids of the N-terminal assembly domain; made in house; host or cells: E. coli BL21 (DE3) Rosetta2, plasmid pET21b
# Sequence (P03147 1-150, looked up, stated change not applied): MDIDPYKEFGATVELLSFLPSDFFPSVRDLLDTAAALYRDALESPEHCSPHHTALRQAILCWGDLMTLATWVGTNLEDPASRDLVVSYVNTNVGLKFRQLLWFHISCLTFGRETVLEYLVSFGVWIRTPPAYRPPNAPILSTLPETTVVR
# PROTOCOL_NOTES: Biochemical capsid assembly assay (fluorescence quenching)
QUANTITY_NAME: IC50

Memo: O=C(c1cc2ccccn2c1)N1CCc2onc(-c3cscn3)c2C1 , reported IC50: < 5 µM

====

# ASSAY_SYSTEM: HBV core protein (C-terminal truncated, 149 aa assembly domain) (Hepatitis B virus genotype D subtype adw, UniProt P03147, C107A/C48A/C61A)
# Construct: The C-terminal truncated core protein containing 149 amino acids of the N-terminal assembly domain; made in house; host or cells: E. coli BL21 (DE3) Rosetta2, plasmid pET21b
# PROTOCOL_NOTES: Biochemical capsid assembly assay (fluorescence quenching)
# STATED_CONDITIONS: BODIPY-FL labelled core protein, assembly started with NaCl, read after 6 min; read-out: Assembly Activity
pIC50: −log10 of the molar value.
Below: a set of entries, each annotated with reported pIC50.

Record excerpt, results attached:
{"COMPOUND": "CC1Cc2[nH]nc(-c3cscn3)c2CN1C(=O)c1cc2c(F)cc(F)cn2c1 (stereo not shown)", "pIC50": "> 5.30"}
{"COMPOUND": "CC(NC(=O)c1noc2c1CN(C(=O)c1cc3ccccn3c1)CC2)C(F)(F)F (stereo not shown)", "pIC50": "> 5.30"}
{"COMPOUND": "CC1Cc2[nH]nc(-c3cscn3)c2CN1C(=O)c1cc2ccc(Cl)cn2c1 (stereo not shown)", "pIC50": "5.00 to 5.30"}

# context switch: different compound, same pIC50
Sample CC(NC(=O)c1[nH]nc2c1CN(C(=O)c1cc3ccccn3c1)CC2)C1COC1 (stereo not shown) ; pIC50 observed: > 4.00
